assay: micronized vs non-micronized TGR-1202 formulations, pharmacokinetics; details: in vivo, po, 200 mg, Non-Micronized Formulation; single oral dose of 200 mg; read-out: AUC0-t, Geometric LS Means
VALUE_TYPE: AUC(0-t) (ng·h/mL)

CC(C)Oc1ccc(-c2nn([C@@H](C)c3oc4ccc(F)cc4c(=O)c3-c3cccc(F)c3)c3ncnc(N)c23)cc1F: 5910

====

experiment: oral TGR-1202 under fasted and fed conditions, pharmacokinetics; details: in vivo, 200 mg, Fed, single oral dose of 200 mg, read-out: AUC0-t, Geometric LS Means
VALUE_TYPE: AUC(0-t) (ng·h/mL)

CC(C)Oc1ccc(-c2nn([C@@H](C)c3oc4ccc(F)cc4c(=O)c3-c3cccc(F)c3)c3ncnc(N)c23)cc1F: 9690
